This collection of values is drawn from PubChem BioAssay (NCI).

- Tested on: NCI-H460 lung
- experiment summary: NCI-60 one-dose screen, 48 h
- measurement conditions: 10 µM unless noted
The panel holds about 83,000 compounds, 20% with a hit somewhere; the sample as a whole holds those more often. Activity calls are given as the source filed them. Rule for the calls: active = growth percent below 10; inactive = the rest.
Output constraint: value belongs to active, inactive

Asked: // outcome(item) with item = CC1(C)CC[C@]2(C(=O)Nc3ccc(Br)cc3)CC[C@]3(C)C(=CCC4[C@@]5(C)C[C@@H](O)[C@H](O)[C@@](C)(CO)C5CC[C@]43C)C2C1 (some centres not stated)
Given back: active

Asked: Could you kindly confirm the outcome this assay logged for CN(C)CCn1c2ccccc2c2nc3cc(C(F)(F)F)ccc3nc21 ?
Given back: active

Asked: Outcome logged for CC(=O)Nc1ccc(-c2nc3cc(-c4ccc(O)cc4)ccc3n2C)cc1 in this assay:
Given back: inactive

Asked: // return assay outcome for CCCCSc1nc(NCCc2c[nH]c3ccccc23)c(C#N)c(-c2ccc(F)cc2)n1
Given back: inactive

Asked: Please state the recorded outcome for this compound: N/N=C(\N)c1c(N)nc(=S)[nH]c1-c1ccc(Cl)cc1Cl
Given back: inactive

Asked: # fetch the recorded call for Cc1cc(C)n(-c2ccc3nnc(-c4ccccc4)n3n2)n1 here
Given back: inactive

Asked: Per the records of this test, what outcome belongs to Cc1ccc(S(=O)(=O)c2nc(S(=O)(=O)c3ccc(C)cc3)c(N3CCN(C)CC3)s2)cc1 ?
Given back: inactive

Asked: What outcome does the record of this test show for CC1(C)CC[C@]2(C(=O)Nc3ccc(F)cc3)CC[C@]3(C)C(=CCC4[C@@]5(C)C[C@@H](O)[C@H](O)[C@@](C)(CO)C5CC[C@]43C)C2C1 (some centres not stated) ?
Given back: inactive

Asked: Could you kindly confirm the outcome this assay logged for Cc1ccc(NC(=O)[C@]23CCC(C)(C)CC2C2=CCC4[C@@]5(C)C[C@@H](O)[C@H](O)[C@@](C)(CO)C5CC[C@@]4(C)[C@]2(C)CC3)cc1 (some centres not stated) ?
Given back: active

Asked: Per the assay record, what outcome was assigned to COc1ccc2[nH]cc(-c3nnc(N)nc3-c3cn(C)c4ncc(Br)cc34)c2c1 ?
Given back: inactive

Asked: Lab log entry: CCCCc1c(Nn2cnnn2)no[n+]1[O-] — outcome as called in the assay?
Given back: inactive

Asked: Lab log entry: COc1cc2oc(-c3cccc(C(=O)Nc4ccc(Cl)cc4)c3)cc(=O)c2c(OCCNC(=O)[C@H](CCC(=O)OC(C)(C)C)NC(=O)OC(C)(C)C)c1OC — outcome as called in the assay?
Given back: inactive

Asked: Could you kindly confirm the outcome this assay logged for Cc1ccc([C@H]2C(C(=O)c3ccc(Cl)cc3)C3(N[C@@H]2c2ccccc2)C(=O)Nc2ccc(Br)cc23)cc1 (some centres not stated) ?
Given back: inactive

Asked: What did this assay record as the result for CC(C)Sc1nc(NCCc2c[nH]c3ccccc23)c(C#N)c(-c2ccc(F)cc2)n1 ?
Given back: active

Asked: For this compound, state the assay outcome: O=C(COc1ccc(NC(=O)Nc2ccc(Cl)c(Cl)c2)cc1)N=Nc1c(O)[nH]c2ccc(Br)cc12
Given back: active

Asked: Dear colleague, could you share the recorded outcome for O=C(Nc1ccc(C(F)(F)F)cc1)Nc1ccc2oc(=O)ccc2c1 when you have a moment?
Given back: inactive

Asked: Dear all, I need the recorded test outcome for NS(=O)(=O)c1ccc(-n2cc(-c3cccc(NC(=O)c4cc(C(F)(F)F)cc(C(F)(F)F)c4)c3)nn2)cc1 , thank you.
Given back: inactive
